Test system: XF 498 CNS
Assay: NCI tumour cell line growth inhibition, 48 h
Property: TGI; scope: individual compounds
property.name: TGI (µM)

compound	test.target	property.name	measured
CCCCCCCCCCCCCCCC(=O)OCC1OC(OC)C(NC(=O)N(CCCl)N=O)C(O)C1O (stereo not given)	XF 498 CNS	TGI	25.7
c1ccc2c(c1)Sc1ccccc1N2C1CN2CCC1CC2 (stereo not given)	XF 498 CNS	TGI	28.8
CC#CC#C/C=C1\C=CC2(OC=CC2OC(C)=O)O1 (stereo not given)	XF 498 CNS	TGI	37.7
O=S1c2ccccc2NC(c2ccc3ccccc3c2)CC1c1ccccc1 (stereo not given)	XF 498 CNS	TGI	52.8

---

Tested on: KM12 colon
Assay: NCI tumour cell line growth inhibition, 48 h; in the data active means GI50 below about 0.43 µM; inactive means the rest
Classes used: active, inactive

molecule	class.name
COc1cc(/C(=C2/O[C@@H]([C@H]3COC(C)(C)O3)[C@H]3OC(C)(C)O[C@@H]23)c2ccc3c(c2)OCO3)cc(OC)c1OC	inactive
CCCCCCCCCCC[C@@H](C[C@H]1OC(=O)[C@H]1CCCCCC)OC(=O)[C@@H](CC(C)C)NC=O	inactive
CC(C)=CC(=O)N[C@@H]1CC2CCC3C(CC[C@@]4(C)C3CC[C@@H]4C(C)N(C)C)[C@@]2(C)C[C@@H]1O (some centres undefined)	inactive
Nc1nc(-c2ccc(Cl)cc2)cc(-c2ccc(Cl)cc2)c1-c1nc2ccccc2o1	inactive
CN1CCN(c2ccc3nc(-c4[nH]ncc4Nc4ncnc5c4OCCCN5)[nH]c3c2)CC1	active
Cc1ccc2nc3c(n2c1)C(=O)C(=O)c1ccccc1-3	inactive
O=C(Nc1ccc(Oc2ccc(NC(=O)Nc3ccc([N+](=O)[O-])cc3)cc2)cc1)Nc1ccc([N+](=O)[O-])cc1	inactive
CCCCCCCCNC(C)C(O)c1ccc(SC(C)C)cc1 (centres undefined)	inactive
OCCn1cc(-c2cnc3nnn(Cc4ccc5ncccc5c4)c3n2)cn1	inactive

---

Property: TGI; scope: individual compounds
System: HOP-92 NSCLC
Assay: NCI tumour cell line growth inhibition, 48 h

compound	TGI
O=C1NC(=O)[C@@H](c2c[nH]c3ccccc23)[C@@H]1c1c[nH]c2ccccc12	> 25 µM
CS(=O)(=O)OCC1CCCCCCCCCCC12SCCCS2 (stereo unspecified)	> 100 µM
COc1cc2cnc(-c3ccccc3)cc2cc1OC	65.9 µM
CCOC(=O)C(=O)Nc1ccccc1OCC	> 100 µM
CC(C)=CCC[C@@H](C)C1=CC(=O)C(C)=C(O)C1=O	7.18 µM
O=C(Cn1c(C(=O)c2ccc(Cl)cc2)nc(-c2ccccc2)c1-c1ccccc1)c1ccc(Cl)cc1	> 100 µM
Cc1cn([C@@H]2C[C@H](CO)[C@@H]2O)c(=O)[nH]c1=O	> 100 µM
Cc1ccc(NC(=O)/C(=N/NC(=O)C[N+](C)(C)C)c2nc3ccccc3[nH]c2=O)cc1	> 100 µM
CN(C)CCNC(=O)c1c2ccccc2cc2ccccc12	> 100 µM
CC(=O)c1ccc2c3c1O[C@H]1c4[nH]c5ccccc5c4C[C@@]4(O)[C@@H](C2)N(CC2CC2)CC[C@]314	28.2 µM
O=C(c1ccco1)c1nc2cc(C(F)(F)F)ccc2[n+]([O-])c1C(F)(F)F	> 100 µM
Nc1nc(-c2ccc(Cl)cc2)cc(-c2ccc(Cl)cc2)c1-c1nc2ccccc2o1	21.2 µM
COc1ccc(N2C(=O)C3c4[nH]c5ccccc5c4C4c5ccccc5CC4C3C2=O)cc1 (stereo unspecified)	> 100 µM
CN(C)c1ccc2cc3ccc(N(C)C)cc3nc2c1	20 µM
O=C(CCN1CCCC1)Nc1ccc2c(NCCc3ccccc3)c3ccccc3nc2c1	1.51 µM
COc1cc([C@@H]2c3cc4c(cc3[C@@H](c3c(O)cc(O)c5c3O[C@H](c3ccc(O)c(O)c3)[C@H](OC(=O)c3cc(O)c(O)c(O)c3)C5)[C@H]3COC(=O)[C@H]23)OCO4)cc(OC)c1O	> 100 µM
CC(=O)OCC1OC(n2c(N)c(C#N)c(-c3cccc(Cl)c3)c(C#N)c2=S)C(OC(C)=O)C(OC(C)=O)C1OC(C)=O (stereo unspecified)	> 100 µM
CCOC(=O)Cn1c(-c2nonc2NC(=O)c2ccccc2F)nc2ccccc21	67.9 µM
Cc1ccc(C#CS(=O)(=O)C(F)(F)F)cc1	> 100 µM
COc1ccc(Cn2c3ccc([N+](=O)[O-])cc3c(=O)n2Cc2ccccn2)cc1	> 100 µM
C1=CN2C[n+]3ccc4ccccc4c3N=C2c2ccccc21	7.92 µM
O=C(Nc1ccc(Nc2ccncc2)cc1)c1ccc(Nc2ccnc3ccc([N+](=O)[O-])cc23)cc1[N+](=O)[O-]	> 74.2 µM
CN1C=COC1N=C1CCCCC1 (stereo unspecified)	> 100 µM
NC(=O)c1sc(-n2cnc3ccc(C(F)(F)F)cc32)cc1OCc1ccccc1Br	16.8 µM
CN(C)CC1CCCc2ccccc2C1=O (stereo unspecified)	34.8 µM
COc1ccc(C2C(C#N)=C(S)N(C3OC(CO)C(O)C(O)C3O)C(C)=C2C(C)=O)cc1 (stereo unspecified)	> 100 µM
CCCCCCCCNC(C)C(O)c1ccc(SC(C)C)cc1 (stereo unspecified)	2.53 µM
COc1ccc(/C=C\c2cc(OC)c(OC)c(OC)c2)cc1OCC(=O)Nc1nc2ccccc2s1	> 31.1 µM
Cc1cc2oc3c(ccc(=O)n3C)c(=O)c2c(C)c1Cl	> 100 µM
C[C@@H](Oc1cc(-n2cnc3ccc(OCC4CCN(C)CC4)cc32)sc1C(N)=O)c1ccccc1Cl	2.51 µM
C[C@@]12C[C@@H](c3ccccc3O1)N1Cc3ccccc3CSC1=N2	> 100 µM
